- System: HL-60
- assay_method_text: Cytotoxicity against human HL60 cells after 72 hrs by MTT assay
- Format: functional, cell-based
- experimental_setup: HL-60, 72 h

>  <mol>
COc1ccc2c(c1)NC(=O)[C@@]21C=C2C(=O)N3CCC[C@H]3C(=O)N2[C@H]1C=C(C)C

>  <IC50 [µM]>
9.71

$$$$

###

- Tested on: A549
- assay_method_text: Cytotoxicity against human A549 cells after 72 hrs by MTT assay
- Assay type: functional, cell-based
- experimental_setup: A549, 72 h

>  <compound>
CC(C)=CCc1cccc2c(C[C@H]3C(=O)N[C@@H](C)C(=O)N3O)c[nH]c12

>  <IC50 [µM]>
7.31

$$$$
>  <compound>
COc1ccc2c(c1)NC(=O)[C@@]21C=C2C(=O)N3CCC[C@H]3C(=O)N2[C@H]1C=C(C)C [SPIROTRYPROSTATIN B]

>  <IC50 [µM]>
8.29

$$$$
>  <compound>
COc1ccc2c(C[C@@H]3NC(=O)[C@@H]4CCCN4C3=O)c(C(=O)C=C(C)C)[nH]c2c1 [18-OXOTRYPROSTATIN A]

>  <IC50 [µM]>
1.28

$$$$
